Values were extracted from PubChem BioAssay (NCI).

- Test system: SK-MEL-28 melanoma
- protocol details: NCI-60 one-dose screen, 48 h (100 = growth as untreated, 0 = no growth, -100 = all killed)
- experimental parameters: 10 µM
About 83,000 compounds went through this panel and 20% of them were active in at least one assay; those are over-represented in the sample as a whole.
metric name: growth (%)
Your answer should be a plain number; it is taken to be in %.

Which measured growth value corresponds to C[C@H]1[C@H](OC(=O)CCC(=O)N(CCCc2cn(-c3ccc([N+](=O)[O-])cc3)nn2)CCNc2ccnc3cc(Cl)ccc23)O[C@@H]2OC3(C)CC[C@H]4[C@H](C)CC[C@@H]1[C@@]24OO3 ?
50.7

Again, but for O=C(/C=C/c1ccco1)c1nc2ccccc2n1Cc1ccc(F)cc1
81.8

Again, but for C[C@H]1[C@H](OC(=O)CCC(=O)Nc2cnccn2)O[C@@H]2OC3(C)CC[C@H]4[C@H](C)CC[C@@H]1[C@@]24OO3
39.7

Again, but for O=C(NC([Se])=NC1CCCCC1)c1ccc2c(c1)OCO2
51.6

Again, but for CC[C@]12C=CCN3CC[C@@]4(c5ccc(OC)cc5N(C)[C@H]4[C@@](O)(C(=O)OC)[C@@H]1OC(=O)CCCC[P+](c1ccc(C)cc1)(c1ccc(C)cc1)c1ccc(C)cc1)[C@@H]32
-97.8

Again, but for CC12OOC(C)(OO1)C2CCC(=O)OCCNc1ccnc2cc(Cl)ccc12 (configuration not stated)
93

Again, but for O=C(/C=C/c1ccc(Cl)cc1)c1nc2ccccc2n1Cc1ccc(Br)cc1
80.1

Again, but for CCOP(=O)(CC(F)(F)C(F)(F)F)OCC
-47.1

Again, but for CCC[Se]C(=O)c1ccc(C(=O)[Se]CCC)s1
-62.9

Again, but for CC12OOC(C)(OO1)C2CCC(=O)NCCNc1ccnc2cc(Cl)ccc12 (configuration not stated)
104

Again, but for O=C(/C=C/c1ccc(Cl)cc1Cl)c1nc2ccccc2n1Cc1ccc(F)cc1
74

Again, but for COc1cc(OC)c(/C=C/C(=O)c2nc3ccccc3n2Cc2ccc(F)cc2)c(OC)c1
92.8

Again, but for COC(=O)c1ccc(-n2cc(CCCN(CCNc3ccnc4cc(Cl)ccc34)C(=O)CCC(=O)O[C@@H]3O[C@@H]4OC5(C)CC[C@H]6[C@H](C)CC[C@@H]([C@H]3C)[C@@]46OO5)nn2)cc1
16.3

Again, but for CC1=C(CCC=O)C2=C(C)C3(CC3)[C@@](C)(O)C(=O)C2=C1
-99.3

Again, but for Cc1c2oc3c(C)ccc(C(=O)N[C@@H]4C(=O)N[C@H](C(C)C)C(=O)N5CCC[C@H]5C(=O)N(C)CC(=O)N(C)[C@@H](C(C)C)C(=O)OC4C)c3nc-2c(C(=O)N[C@@H]2C(=O)N[C@H](C(C)C)C(=O)N3CC(=O)C[C@H]3C(=O)N(C)CC(=O)N(C)[C@@H](C(C)C)C(=O)OC2C)c(N)c1=O (some centres not stated)
-27.8

Again, but for COc1cc2cc(C(=O)N3C[C@@H](CCl)c4c3cc(OC(=O)N3CCN(C)[C@@H]5CSSC[C@H]53)c3ccccc43)[nH]c2c(OC)c1OC
-94.8

Again, but for CC(C)N=C([Se])NC(=O)c1cccs1
60.2
